- System: UACC-62 melanoma
- procedure.summary: NCI tumour cell line growth inhibition, 48 h; in the data active = GI50 below about 0.43 µM; inactive = the rest
Answer with one of the outcomes given here: Yes (active), No (inactive)

// param item: `COc1ccc(/C=C/C(=O)c2cc(OC)c(OC)c(OC)c2)cc1OCC(=O)Nc1nc2ccc(OC(F)(F)F)cc2s1` ; yields the recorded call
No

Consider next the molecule `N.N.N.N.N.[Co+3].[I-].[N-]=[N+]=[N-]` in the same way.
No

Here is the next molecule: COc1cc(C2Cc3ncccc3-c3[nH]c(=O)c4cccnc4c32)cc(OC)c1OC (stereo not drawn)
No

Also CCC(C)[C@H]1O[C@]2(CC[C@@H]1C)C[C@@H]1C[C@@H](C/C=C(\C)[C@@H](OC3C[C@H](OC)C(O[C@H]4C[C@H](OC)[C@@H](O)[C@H](C)O4)[C@H](C)O3)[C@@H](C)/C=C/C=C3\CO[C@@H]4[C@H](O)C(C)=C[C@@H](C(=O)O1)[C@]34O)O2 (stereo partly drawn) ?
No

Param item: `O=C(Oc1cccc2cccnc12)c1cc2c(cc1Cl)SC(N(c1ccc(F)cc1)S(=O)(=O)c1ccc(Br)s1)=NS2(=O)=O`
No

Next: `Cc1cc(O)c(=O)cc2c1C[C@H]1CC(C)(C)/C=C/C[C@]3(C)Oc4cc(=O)c(O)cc(C)c4C[C@H]3C[C@H](O)[C@@]1(C)O2`
Yes

Cool, now CCN1C(=S)N(c2ccccc2)C2NC(=S)N(/N=C/C=C/c3ccccc3OC)C21 (stereo not drawn)
Yes

Param item: `CS(=O)(=O)Nc1cncc(-c2ccc3ncnc(Nc4ccc(F)c(Cl)c4)c3c2)c1`
No
